# Test system: Enterococcus sp.
# Assay protocol: In vitro antibacterial evaluation: minimum inhibitory concentration (MIC), broth dilution method
# Type: cell-based
# Reported conditions: broth dilution, inoculum 5×10^5 CFU/mL, 18 hours at 35° C.
Quantity: MIC Enterococcus faecium (GC 4557) (µg/mL)
All answers are understood in µg/mL, so give the number only.

Name the value of MIC Enterococcus faecium (GC 4557) reported for CC(c1ccccc1)C1NC(=O)CNC(=O)C(CO)NC(=O)C(C(O)C2CNC(=N)N2C2OC(CO)C(O)C(O)C2O)NC(=O)C(C(O)C2CNC(=N)N2)NC(=O)C(Cc2ccc(OC3OC(CO)C(OC4OC5COC(c6ccc(C(=O)c7cc(I)c(I)c(I)c7)cc6)OC5C(O)C4O)C(O)C3O)cc2)NC1=O (stereo not shown) [Example 187] when tested on Enterococcus sp..
16

Tell me MIC Enterococcus faecium (GC 4557) of CC(c1ccccc1)C1NC(=O)CNC(=O)C(CO)NC(=O)C(C(O)C2CNC(=N)N2C2OC(CO)C(O)C(O)C2O)NC(=O)C(C(O)C2CNC(=N)N2)NC(=O)C(Cc2ccc(OC3OC(CO)C(OC4OC5COC(c6ccc(C=Cc7ccccc7)cc6)OC5C(O)C4O)C(O)C3O)cc2)NC1=O (stereo not shown) [Example 172] when tested on Enterococcus sp..
8

// next entry
Provide MIC Enterococcus faecium (GC 4557), tested on Enterococcus sp., for CSc1ccc(C2OCC3OC(OC4C(CO)OC(Oc5ccc(CC6NC(=O)C(C(C)c7ccccc7)NC(=O)CNC(=O)C(CO)NC(=O)C(C(O)C7CNC(=N)N7C7OC(CO)C(O)C(O)C7O)NC(=O)C(C(O)C7CNC(=N)N7)NC6=O)cc5)C(O)C4O)C(O)C(O)C3O2)cc1[N+](=O)[O-] (stereo not shown) [Example 168] .
1

Cited source for all entries: patent US8247211B2
